# target.system: H-2 K^d (Mus musculus)
# Sequence (P01902 22-368): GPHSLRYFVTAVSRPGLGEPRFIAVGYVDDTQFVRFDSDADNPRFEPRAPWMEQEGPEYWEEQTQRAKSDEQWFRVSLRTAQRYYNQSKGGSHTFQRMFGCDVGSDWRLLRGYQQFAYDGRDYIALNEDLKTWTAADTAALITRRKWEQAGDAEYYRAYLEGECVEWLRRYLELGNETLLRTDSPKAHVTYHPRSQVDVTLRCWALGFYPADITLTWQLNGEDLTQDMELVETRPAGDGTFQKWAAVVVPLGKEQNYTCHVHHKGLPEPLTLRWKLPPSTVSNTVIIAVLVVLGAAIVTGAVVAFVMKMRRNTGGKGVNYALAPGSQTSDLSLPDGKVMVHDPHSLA
# Sequence (P01887 21-119 partner): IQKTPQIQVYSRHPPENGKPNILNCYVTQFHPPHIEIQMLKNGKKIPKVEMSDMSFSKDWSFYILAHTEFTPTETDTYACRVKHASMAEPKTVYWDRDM
# assay.summary: Binding assays: inhibition of binding of a radiolabeled standard peptide to purified MHC molecules
Peptide text beside a SMILES is read from it.
measured.parameter: pIC50
Reminder that pIC50 is minus the log10 of a molar concentration.

Query string: // lookup pIC50 for CC(C)C[C@H](NC(=O)[C@H](CCCNC(=N)N)NC(=O)[C@@H]1CCCN1C(=O)[C@H](CO)NC(=O)[C@H](CCCNC(=N)N)NC(=O)[C@H](Cc1ccc(O)cc1)NC(=O)[C@H](CCC(N)=O)NC(=O)[C@H](CCCNC(=N)N)NC(=O)[C@H](CCC(N)=O)NC(=O)[C@H](CC(C)C)NC(=O)[C@@H](N)CCCCN)C(=O)O [Mast2] (H-KLQRQYRSPRL-OH)
Result string: 5.07

Query string: Repeat with CSCC[C@H](NC(=O)[C@H](Cc1ccc(O)cc1)NC(=O)[C@@H](N)CO)C(=O)N[C@@H](CC(C)C)C(=O)N[C@@H](CCC(N)=O)C(=O)N[C@@H](C)C(=O)N[C@@H](CC(C)C)C(=O)N[C@@H](CS)C(=O)O [Tnpo3.4, (sy/LD)MLQALC] (H-SYMLQALC-OH)
Result string: 7.05
